- Test system: NCI-H226 lung
- Method summary: NCI-60 one-dose screen, 48 h (100 = growth as untreated, 0 = no growth, -100 = all killed)
- Study conditions: 10 µM unless noted
This is part of a sample that, as a whole, favours compounds with a hit. Of some 83,000 tested, about 20% had one in any assay.
growth values for the molecules below.
Numbers only here, please. The scale is %.

Query: What value of growth has been recorded for this entry: N#CC(C#N)=C(C#N)C#N
Response: 101

Others:
Query: What measured growth goes with CCC1(NC(=O)c2cc(F)c(F)c(F)c2F)C(=O)NC(=O)N(C(C)C)C1=O (stereo not drawn) ?
Response: 139

Query: # growth lookup, item Cc1ccc(S(=O)(=O)n2cc([C@@]3(O)C[C@H](CSC#N)OC3=O)c3ccccc32)cc1
Response: 85.3
